- Subject of test: Dual specificity mitogen-activated protein kinase kinase 7 (Homo sapiens)
- Run description: Binding affinity to wild type full length human MKK7 (M1 to R419 residues) expressed in mammalian expression system assessed as residual activity at 100 nM measured by Kinomescan assay

Sample smiles	Subject of test	Activity, %
CCCS(=O)(=O)Nc1ccc(F)c(C(=O)c2c[nH]c3ncc(-c4ccc(OC)cc4F)cc23)c1F	Dual specificity mitogen-activated protein kinase kinase 7 (Homo sapiens)	85
CCCS(=O)(=O)Nc1ccc(F)c(C(=O)c2c[nH]c3ncc(-c4ccccc4F)cc23)c1F	Dual specificity mitogen-activated protein kinase kinase 7 (Homo sapiens)	86
CCCS(=O)(=O)Nc1ccc(F)c(C(=O)c2c[nH]c3ncc(-c4cnccn4)cc23)c1F	Dual specificity mitogen-activated protein kinase kinase 7 (Homo sapiens)	83
CCS(=O)(=O)Nc1ccc(F)c(C(=O)c2c[nH]c3ncc(-c4ccc(Cl)cc4)cc23)c1F	Dual specificity mitogen-activated protein kinase kinase 7 (Homo sapiens)	89
O=C(c1c(F)ccc(NS(=O)(=O)CCC(F)(F)F)c1F)c1c[nH]c2ncc(-c3ccc(Cl)cc3)cc12	Dual specificity mitogen-activated protein kinase kinase 7 (Homo sapiens)	100
CCCS(=O)(=O)Nc1ccc(F)c(C(=O)c2c[nH]c3ncc(-c4ncccn4)cc23)c1F	Dual specificity mitogen-activated protein kinase kinase 7 (Homo sapiens)	90
CCCS(=O)(=O)Nc1ccc(F)c(C(=O)c2c[nH]c3ncc(-c4ccc(F)cc4C)cc23)c1F	Dual specificity mitogen-activated protein kinase kinase 7 (Homo sapiens)	100
CCCS(=O)(=O)Nc1ccc(F)c(C(=O)c2c[nH]c3ncc(-c4ccccc4)cc23)c1F	Dual specificity mitogen-activated protein kinase kinase 7 (Homo sapiens)	100
CCCS(=O)(=O)Nc1ccc(F)c(C(=O)c2c[nH]c3ncc(-c4ccc5c(c4)OCCO5)cc23)c1F	Dual specificity mitogen-activated protein kinase kinase 7 (Homo sapiens)	100
CCCS(=O)(=O)Nc1ccc(F)c(C(=O)c2c[nH]c3ncc(-c4cccs4)cc23)c1F	Dual specificity mitogen-activated protein kinase kinase 7 (Homo sapiens)	98
O=C(c1c(F)ccc(NS(=O)(=O)Cc2ccccc2F)c1F)c1c[nH]c2ncc(-c3ccc(Cl)cc3)cc12	Dual specificity mitogen-activated protein kinase kinase 7 (Homo sapiens)	97
O=C(c1cccc(NS(=O)(=O)Cc2ccccc2)c1F)c1c[nH]c2ncc(-c3ccncc3)cc12	Dual specificity mitogen-activated protein kinase kinase 7 (Homo sapiens)	95
CCCS(=O)(=O)Nc1ccc(F)c(C(=O)c2c[nH]c3ncc(-c4ccc(F)cc4F)cc23)c1F	Dual specificity mitogen-activated protein kinase kinase 7 (Homo sapiens)	93
CCCS(=O)(=O)Nc1ccc(F)c(C(=O)c2c[nH]c3ncc(-c4ccccc4OC)cc23)c1F	Dual specificity mitogen-activated protein kinase kinase 7 (Homo sapiens)	100
Cc1ccc(CS(=O)(=O)Nc2ccc(F)c(C(=O)c3c[nH]c4ncc(-c5ccc(Cl)cc5)cc34)c2F)cc1	Dual specificity mitogen-activated protein kinase kinase 7 (Homo sapiens)	90
O=C(c1c(F)ccc(NS(=O)(=O)CCc2ccccc2)c1F)c1c[nH]c2ncc(-c3ccc(Cl)cc3)cc12	Dual specificity mitogen-activated protein kinase kinase 7 (Homo sapiens)	97
CS(=O)(=O)Nc1cccc(C(=O)c2c[nH]c3ncc(-c4ccc(Cl)cc4)cc23)c1F	Dual specificity mitogen-activated protein kinase kinase 7 (Homo sapiens)	81
Oc1ccc(-c2ncnc3[nH]c4ccc(O)cc4c23)cc1	Dual specificity mitogen-activated protein kinase kinase 7 (Homo sapiens)	100

---

We begin with a simple list: items and their reported Activity.
- Subject of test: Mitogen-activated protein kinase kinase kinase kinase 5 (Homo sapiens) (UniProt Q9Y4K4)
- Sequence (Q9Y4K4 whole entry, looked up): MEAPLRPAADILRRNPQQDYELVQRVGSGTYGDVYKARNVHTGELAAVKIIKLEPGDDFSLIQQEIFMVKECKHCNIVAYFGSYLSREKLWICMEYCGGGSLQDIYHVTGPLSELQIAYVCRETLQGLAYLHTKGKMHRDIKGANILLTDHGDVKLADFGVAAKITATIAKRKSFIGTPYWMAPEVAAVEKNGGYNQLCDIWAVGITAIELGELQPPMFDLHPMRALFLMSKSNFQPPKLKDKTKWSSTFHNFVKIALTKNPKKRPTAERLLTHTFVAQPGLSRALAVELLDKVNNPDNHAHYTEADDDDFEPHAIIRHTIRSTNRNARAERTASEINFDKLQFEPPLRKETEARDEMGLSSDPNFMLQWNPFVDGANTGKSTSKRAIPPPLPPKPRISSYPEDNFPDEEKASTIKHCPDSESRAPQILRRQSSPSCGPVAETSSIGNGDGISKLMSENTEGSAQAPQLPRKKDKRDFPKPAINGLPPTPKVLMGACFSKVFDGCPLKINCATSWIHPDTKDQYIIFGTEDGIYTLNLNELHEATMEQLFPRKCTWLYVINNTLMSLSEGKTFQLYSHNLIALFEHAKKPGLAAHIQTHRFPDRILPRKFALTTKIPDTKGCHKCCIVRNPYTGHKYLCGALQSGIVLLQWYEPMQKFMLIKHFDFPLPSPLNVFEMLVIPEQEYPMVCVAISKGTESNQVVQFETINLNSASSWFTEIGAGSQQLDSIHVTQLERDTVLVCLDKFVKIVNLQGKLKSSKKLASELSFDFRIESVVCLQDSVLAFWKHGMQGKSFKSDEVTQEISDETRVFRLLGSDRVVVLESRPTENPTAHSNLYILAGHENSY
- Run description: Binding affinity to wild type partial length human MAP4K5 (M1 to P297) expressed in Bacterial expression system assessed as residual activity at 100 nM measured by Kinomescan assay relative to control

Molecule	Activity, %
CCCS(=O)(=O)Nc1ccc(F)c(C(=O)c2c[nH]c3ncc(-c4ccccc4)cc23)c1F	29
CCCS(=O)(=O)Nc1ccc(F)c(C(=O)c2c[nH]c3ncc(-c4ccc(Cl)cc4)cc23)c1F [VEMURAFENIB]	48
COCCS(=O)(=O)Nc1ccc(F)c(C(=O)c2c[nH]c3ncc(-c4ccc(Cl)cc4)cc23)c1F	100
Oc1ccc(-c2ncnc3[nH]c4ccc(O)cc4c23)cc1	92
CCCS(=O)(=O)Nc1ccc(F)c(C(=O)c2c[nH]c3ncc(-c4ccc5c(c4)OCCO5)cc23)c1F	84
CCCS(=O)(=O)Nc1ccc(F)c(C(=O)c2c[nH]c3ncc(-c4ccc(F)cc4)cc23)c1F	67
CCCS(=O)(=O)Nc1ccc(F)c(C(=O)c2c[nH]c3ncc(-c4cc5c(cc4Cl)OCCO5)cc23)c1F	98
Cc1nc(NC(C)CO)c2c(n1)[nH]c1ccc(O)cc12 (stereo not given)	95
CCCS(=O)(=O)Nc1ccc(F)c(C(=O)c2c[nH]c3ncc(-c4ccc5c(c4)OCO5)cc23)c1F	76
O=C(c1c(F)ccc(NS(=O)(=O)Cc2ccccc2)c1F)c1c[nH]c2ncc(-c3ccc(Cl)cc3)cc12	94
CCCS(=O)(=O)Nc1ccc(F)c(C(=O)c2c[nH]c3ncc(-c4ccccc4OC)cc23)c1F	43
O=C(c1c(F)ccc(NS(=O)(=O)CCCF)c1F)c1c[nH]c2ncc(-c3ccc(Cl)cc3)cc12	80
CCCS(=O)(=O)Nc1ccc(F)c(C(=O)c2c[nH]c3ncc(-c4ccccc4Cl)cc23)c1F	79
CCCS(=O)(=O)Nc1ccc(F)c(C(=O)c2c[nH]c3ncc(-c4ccc(C)cc4)cc23)c1F	28
CCCS(=O)(=O)Nc1ccc(F)c(C(=O)c2c[nH]c3ncc(-c4cccc(C)c4)cc23)c1F	28
CCCS(=O)(=O)Nc1ccc(F)c(C(=O)c2c[nH]c3ncc(-c4ccco4)cc23)c1F	78
COc1ccc(-c2cnc3[nH]cc(C(=O)c4cccc(NS(=O)(=O)Cc5ccccc5)c4F)c3c2)c(Cl)c1	79
O=C(c1cccc(NS(=O)(=O)Cc2ccccc2)c1F)c1c[nH]c2ncc(-c3cccnc3)cc12	20
O=C(c1c(F)ccc(NS(=O)(=O)CCc2ccccc2)c1F)c1c[nH]c2ncc(-c3ccc(Cl)cc3)cc12	100
CCCS(=O)(=O)Nc1cccc(C(=O)c2c[nH]c3ncc(-c4ccc(Cl)cc4)cc23)c1	44
CCCS(=O)(=O)Nc1ccc(F)c(C(=O)c2c[nH]c3ncc(-c4cc5c(cc4Cl)OCO5)cc23)c1F	99
Cc1cc(F)ccc1-c1cnc2[nH]cc(C(=O)c3cccc(NS(=O)(=O)Cc4ccccc4)c3F)c2c1	97
O=C(c1cccc(NS(=O)(=O)Cc2ccccc2)c1F)c1c[nH]c2ncc(-c3cc4c(cc3Cl)OCO4)cc12	66
C#Cc1cnc2[nH]cc(C(=O)c3c(F)ccc(NS(=O)(=O)CCC)c3F)c2c1	89
CCCS(=O)(=O)Nc1ccc(F)c(C(=O)c2c[nH]c3ncc(-c4ccc(OC)cc4OC)cc23)c1F	84
CS(=O)(=O)Nc1ccc(F)c(C(=O)c2c[nH]c3ncc(-c4ccc(Cl)cc4)cc23)c1F	63
O=C(c1cccc(NS(=O)(=O)Cc2ccccc2)c1F)c1c[nH]c2ncc(-c3cnc(C4CC4)nc3)cc12	82
CCCS(=O)(=O)Nc1cccc(C(=O)c2c[nH]c3ncc(-c4ccc(Cl)cc4)cc23)c1Cl	79
CCCS(=O)(=O)Nc1ccc(F)c(C(=O)c2c[nH]c3ncc(-c4ccc(OC)cc4Cl)cc23)c1F	100
CCCS(=O)(=O)Nc1ccc(F)c(C(=O)c2c[nH]c3ncc(-c4ccccc4C)cc23)c1F	67
CCCCS(=O)(=O)Nc1ccc(F)c(C(=O)c2c[nH]c3ncc(-c4ccc(Cl)cc4)cc23)c1F	75
CCCC(=O)Nc1ccc(F)c(C(=O)c2c[nH]c3ncc(-c4ccc(Cl)cc4)cc23)c1F	91
CCCCCCS(=O)(=O)Nc1ccc(F)c(C(=O)c2c[nH]c3ncc(-c4ccc(Cl)cc4)cc23)c1F	99
CCCS(=O)(=O)Nc1ccc(F)c(C(=O)c2c[nH]c3ncc(-c4ncccn4)cc23)c1F	92
CCCS(=O)(=O)Nc1ccc(F)c(C(=O)c2c[nH]c3ncc(-c4cnc(OC)nc4)cc23)c1F	86
